- measurement.target: Cdc25B (Homo sapiens, UniProt P30305)
- Sequence (P30305 whole entry, species assumed): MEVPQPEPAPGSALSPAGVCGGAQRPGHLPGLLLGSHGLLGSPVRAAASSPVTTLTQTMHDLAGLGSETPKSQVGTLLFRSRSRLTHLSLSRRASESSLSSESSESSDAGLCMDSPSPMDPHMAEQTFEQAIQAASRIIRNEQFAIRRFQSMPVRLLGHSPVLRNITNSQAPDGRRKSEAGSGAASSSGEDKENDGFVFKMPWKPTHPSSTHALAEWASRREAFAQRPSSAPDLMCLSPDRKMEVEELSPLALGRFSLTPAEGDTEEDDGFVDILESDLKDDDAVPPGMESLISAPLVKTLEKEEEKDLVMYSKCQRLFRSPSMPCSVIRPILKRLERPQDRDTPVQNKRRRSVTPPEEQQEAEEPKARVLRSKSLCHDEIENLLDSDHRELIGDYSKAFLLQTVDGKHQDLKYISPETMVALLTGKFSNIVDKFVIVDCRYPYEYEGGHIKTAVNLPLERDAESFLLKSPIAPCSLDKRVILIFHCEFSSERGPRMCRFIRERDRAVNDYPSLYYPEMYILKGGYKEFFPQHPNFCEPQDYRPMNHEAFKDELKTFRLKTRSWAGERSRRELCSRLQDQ
pIC50: −log10 of the molar value.
measure: pIC50

smiles.structure	measurement.target	obs.value
CC(C)(C)C(=O)Nc1ccc2c(c1)C(=O)C(=O)c1ccccc1-2	Cdc25B (Homo sapiens, UniProt P30305)	< 4.30

###

- measurement.target: DUSP18 (Homo sapiens)
- Sequence (Q8NEJ0 whole entry, species assumed): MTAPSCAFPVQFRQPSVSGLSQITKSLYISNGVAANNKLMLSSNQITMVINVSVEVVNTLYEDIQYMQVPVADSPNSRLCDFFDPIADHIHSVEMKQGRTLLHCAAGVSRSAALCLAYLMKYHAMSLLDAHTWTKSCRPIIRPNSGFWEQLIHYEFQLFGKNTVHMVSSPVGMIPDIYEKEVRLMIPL

smiles.structure	IC50
CC(C)(C)C(=O)Nc1ccc2c(c1)C(=O)C(=O)c1ccccc1-2	> 50 µM

###

- measurement.target: PTEN (Homo sapiens, UniProt P60484)
- Sequence (P60484 whole entry, species assumed): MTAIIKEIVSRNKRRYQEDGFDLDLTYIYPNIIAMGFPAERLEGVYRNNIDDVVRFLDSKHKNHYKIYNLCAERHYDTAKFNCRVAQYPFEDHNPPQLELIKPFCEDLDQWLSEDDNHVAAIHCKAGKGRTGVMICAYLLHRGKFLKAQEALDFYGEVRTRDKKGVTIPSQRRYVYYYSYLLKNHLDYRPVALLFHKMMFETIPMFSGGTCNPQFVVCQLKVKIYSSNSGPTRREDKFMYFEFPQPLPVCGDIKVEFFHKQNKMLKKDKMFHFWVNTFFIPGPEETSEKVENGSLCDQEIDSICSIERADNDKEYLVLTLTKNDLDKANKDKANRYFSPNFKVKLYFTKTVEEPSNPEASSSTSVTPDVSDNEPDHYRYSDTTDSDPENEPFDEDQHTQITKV
pIC50: −log10 of the molar value.
measure: pIC50

smiles.structure	measurement.target	obs.value
CC(C)(C)C(=O)Nc1ccc2c(c1)C(=O)C(=O)c1ccccc1-2	PTEN (Homo sapiens, UniProt P60484)	5.75
